assay info: chemical genetic growth profiling, strain panel (AID 1159580);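 also: tested at 20 µM; growth read once vehicle control cultures reached saturation at 30 °C; 1 = growth at the plate median or of vehicle wells; lower values mean less growth of the strain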
condition details: S. cerevisiae deletion strains, growth OD, locus YFR010W, strain ubp6, hits give low values
In all, about 5,500 compounds went through this assay and about 2,000 (36%) were called active. Not shown: some 18% with an inconclusive outcome. The list shows a part of the results.
assay metric: normalized growth
Reply with the value as a number alone.

Input O=c1cccc2n1C[C@H]1CNCC2C1 . Output normalized growth: 1.02

Input C[C@]12CCC3c4ccc(OS(=O)(=O)O)cc4CCC3C1CCC2=O (some centres not stated) . Output normalized growth: 1.02

Input CS(=O)(=O)OCCCCOS(C)(=O)=O . Output normalized growth: 0.996

Input O=C1O[C@@H](CO)[C@H](O)[C@@H](O)[C@@H]1O . Output normalized growth: 1.01

Input OC/C=C/c1ccc(O)c(O)c1 . Output normalized growth: 0.999

Input O=C(NC(=O)c1c(F)cccc1F)Nc1cc(Cl)c(OC(F)(F)C(F)C(F)(F)F)cc1Cl (configuration not stated) . Output normalized growth: 0.986

Input C#C[C@]1(O)CCC2C3CCc4cc(O)ccc4C3CC[C@@]21C (some centres not stated) . Output normalized growth: 1.01

###

assay info: chemical genetic growth profiling, strain panel (AID 1159580);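 also: tested at 20 µM; growth read once vehicle control cultures reached saturation at 30 °C; 1 = growth at the plate median or of vehicle wells; lower values mean less growth of the strain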
condition details: S. cerevisiae deletion strains, growth OD, locus YNR030W, strain Alg12, hits give low values
Among all 5,500 compounds or so, about 2,000 (36%) were called active. Roughly 18% stayed inconclusive and do not appear here. The list shows a part of the results.
For each of the compounds below, state its normalized growth.
Reply with the value as a number alone.

Input Fc1cccc(Cl)c1Cn1nnc(N2CCCCC2)n1 . Output normalized growth: 0.926

Input COC(=O)c1ccc(C(=O)OC)nc1 . Output normalized growth: 0.998

Input O=C(O)CC(CC(=O)O)c1ccc(C(F)(F)F)cc1 . Output normalized growth: 1.02

Input O=C(CCN1CCOCC1)c1ccc2c(c1)OCCO2 . Output normalized growth: 0.787

Input ON(Cc1c(F)cccc1Cl)Cc1c(F)cccc1Cl . Output normalized growth: 0.993

Input O=c1[nH]cnc2ccc(Br)cc12 . Output normalized growth: 1.01

Input CC(C)(C)c1nc(N)sc1Br . Output normalized growth: 1

Input CC(C)c1nc2ccccc2[nH]1 . Output normalized growth: 1.01

Input COc1nc(N)nc(SC)n1 . Output normalized growth: 1.02

###

assay info: chemical genetic growth profiling, strain panel (AID 1159580);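 also: tested at 20 µM; growth read once vehicle control cultures reached saturation at 30 °C; 1 = growth at the plate median or of vehicle wells; lower values mean less growth of the strain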
condition details: S. cerevisiae deletion strains, growth OD, locus YDR334W, strain swr1
The campaign covered roughly 5,500 compounds. About 2,000 (36%) were called active. Not shown: some 18% with an inconclusive outcome. Cut-off read from the data, not from the text of the source: active = normalized growth mostly below about 0.91 (no sharp cut-off); inconclusive = no clear call, values can overlap the other calls; inactive = mostly above about 0.92. The list shows a part of the results.
Choose the fitting class; nothing outside active, inactive is accepted.

Prompt: What classification did CN(C)CCCO[C@H]1[C@@H](C(O)CO)OC2OC(C)(C)O[C@@H]21 (stereo partly drawn) end up with in this test?
Response: inactive

Prompt: What classification did NCc1ccc(S(N)(=O)=O)cc1 end up with in this test?
Response: inactive

Prompt: What classification did CC1(C)C2CC(=O)O[C@@]3(C)C4=CC(=O)O[C@@H](c5ccoc5)[C@]4(C)CCC3[C@@]2(C)C=C[C@H]1O (stereo partly drawn) end up with in this test?
Response: inactive

Prompt: What classification did CCCN(CCC)C(=O)C(CCC(=O)O)NC(=O)c1ccccc1 (stereo not drawn) end up with in this test?
Response: inactive

Prompt: What classification did NC(=O)N/N=C\c1ccc([N+](=O)[O-])o1 end up with in this test?
Response: inactive

Prompt: What classification did CC(COc1ccccc1)N(CCCl)Cc1ccccc1 (stereo not drawn) end up with in this test?
Response: inactive

Prompt: What classification did COc1ccc(C=CC(=O)c2ccc(O)cc2O)cc1OC end up with in this test?
Response: inactive

Prompt: What classification did CC[C@@H]1[C@@H](O)N2C3C[C@H]1C1C(O)[C@]4(C[C@@H]12)c1ccccc1N(C)[C@@H]34 (stereo partly drawn) end up with in this test?
Response: inactive

Prompt: What classification did CC[C@@H](C(=O)[C@@H](C)[C@@H](O)[C@H](C)[C@@H]1O[C@@H]([C@@H](CC)C(=O)O)CC[C@@H]1C)[C@H]1OC2(C=C[C@@H](O)[C@]3(CC[C@@](C)([C@H]4CC[C@](O)(CC)[C@H](C)O4)O3)O2)[C@H](C)C[C@@H]1C (stereo partly drawn) end up with in this test?
Response: inactive

Prompt: What classification did O=C(O)CCC(=O)c1ccc(-c2ccccc2)cc1 end up with in this test?
Response: inactive

Prompt: What classification did O=C(O)CCCCC1SCC2NC(=O)NC21 (stereo not drawn) end up with in this test?
Response: inactive

Prompt: What classification did c1ccc2[nH]c(-c3cscn3)nc2c1 end up with in this test?
Response: inactive

Prompt: What classification did CCCCC(CC)CN=C(N)NC(N)=NCCCCCCN=C(N)NC(N)=NCC(CC)CCCC (stereo not drawn) end up with in this test?
Response: active

Prompt: What classification did O=C(O)c1cc(=O)c2c(OCC(O)COc3cccc4oc(C(=O)O)cc(=O)c34)cccc2o1 end up with in this test?
Response: inactive

Prompt: What classification did CC(=O)O[C@H]1CC[C@@]2(C)C(=CCC3C2CC[C@]2(C)C(=O)CCC32)C1 (stereo partly drawn) end up with in this test?
Response: inactive

Prompt: What classification did Cc1ccc(C(C)C)cc2c(C)ccc1-2 end up with in this test?
Response: inactive

Prompt: What classification did CCCN(CCC)CCc1cccc2c1CC(=O)N2 end up with in this test?
Response: inactive

Prompt: What classification did O=C1O[C@@H](CO)[C@H](O)[C@@H](O)[C@@H]1O end up with in this test?
Response: inactive

Prompt: What classification did C[C@](N)(Cc1ccc(O)cc1)C(=O)O end up with in this test?
Response: inactive

Prompt: What classification did NCCCCN=C(N)N end up with in this test?
Response: inactive

Prompt: What classification did COc1cc(C)c2c(c1C=O)Oc1c(c(C)c(O)c3c1C(O)OC3=O)OC2=O (stereo not drawn) end up with in this test?
Response: inactive

Prompt: What classification did CC12CCC3C(CC=C4CC(O)CCC43C)C1CCC2=O (stereo not drawn) end up with in this test?
Response: inactive

Prompt: What classification did CCn1cc(C(=O)O)c(=O)c2cc3c(cc21)OCO3 end up with in this test?
Response: inactive

Prompt: What classification did O=c1cccc2n1C[C@H]1CNCC2C1 end up with in this test?
Response: inactive

Prompt: What classification did CC[C@]1(O)CC2CN(CCc3c([nH]c4ccccc34)[C@@](C(=O)OC)(c3cc4c(cc3OC)N(C=O)[C@H]3[C@@](O)(C(=O)OC)[C@H](OC(C)=O)[C@]5(CC)C=CCN6CC[C@]43[C@@H]65)C2)C1 (stereo partly drawn) end up with in this test?
Response: inactive

Prompt: What classification did COP(=S)(OC)Oc1ccc(SC)c(C)c1 end up with in this test?
Response: inactive

Prompt: What classification did COc1cc2c(cc1O)CC1c3c(cc(O)c(OC)c3-2)CCN1C (stereo not drawn) end up with in this test?
Response: inactive

Prompt: What classification did OC/C=C/c1ccc(O)c(O)c1 end up with in this test?
Response: inactive
